From various publications: IC50 for DNA polymerase I, thermostable (Thermus aquaticus, UniProt P19821).
recorded.endpoint: IC50 (µM)

Example entries begin here.
CC1=NN(C(=O)c2ccccc2)C(c2ccccc2O)C1 (stereo not drawn) = 8
CN(C)CCCNc1nc2ccccc2c2[nH]c3c4cc([N+](=O)[O-])ccc4ccc3c12 = 5
COc1ccc2c(ccc3c2[nH]c2c4ccccc4nc(NCCCN(C)C)c32)c1 = 0.9
O=c1cc(-c2ccccc2)oc2cc(OCc3ccc(Cl)nc3)cc(O)c12 = 27.5
C[N+](C)(C)CCN1C(=O)c2cccc3cccc(c23)C1=O = 22
CN(C)CCCN1C(=O)c2ccc3c4c(ccc(c24)C1=O)C(=O)N(CCCN(C)C)C3=O = 6.4
O=c1cc(-c2ccc(OCc3ccc(Cl)nc3)cc2)oc2cc(O)cc(O)c12 = 6.8
O=C1c2ccc3c4ccc5c6c(ccc(c7ccc(c2c37)C(=O)N1CCNCCO)c64)C(=O)N(CCNCCO)C5=O = 0.2

[1] CC1=NN(S(=O)(=O)c2ccc(C)cc2)C(c2ccccc2O)C1 (stereo not drawn)
[2] c1cc2c3ccc4c5c(ccc(c6ccc7c(c1CN(CCN1CCCCC1)C7)c26)c53)CN(CCN1CCCCC1)C4
[3] CN(C)CCN1C(=O)c2ccc3c4c(ccc(c24)C1=O)C(=O)N(CCN(C)C)C3=O
[4] COc1ccc2ccc3c([nH]c4c5ccccc5nc(NCCCN(C)C)c34)c2c1
[5] C/C(=C\COc1c2c(cc3oc(=O)ccc13)OCO2)CO
Exam item: list the entries in increasing order of IC50. Sort and list the labels as requested. 3, 4, 2, 1, 5
